B1: KLHL14 (parent)
chain: CAVLDDSIYLVGGYSWSMGAYKSS

Variants of: B1
assay-summary: protein stability index of a GFP-peptide fusion (GPS, HEK-293T) (PSI 1-6); higher = more stable;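 note: lentivirally expressed fusions sorted by FACS into six bins by GFP to DsRed ratio, PSI derived from sequencing read proportions per bin multiplied by bin number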
stated-conditions: c terminus: a fixed tail appended
measure: protein stability index
Output: the number by itself.

# annotated cases, reported protein stability index shown
V3M : 2.9
A2K : 2.85
G12P : 2.79
Y21R : 2.45
V3Q : 2.39

Per the records, this variant ( S7I ) has protein stability index equal to 2.49
